B1: TPR t1 (parent)
chain: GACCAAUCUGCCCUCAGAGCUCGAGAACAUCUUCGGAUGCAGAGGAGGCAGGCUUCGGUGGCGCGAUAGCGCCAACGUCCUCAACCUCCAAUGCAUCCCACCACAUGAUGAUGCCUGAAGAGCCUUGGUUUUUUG

variants of: B1; assay: polymerase ribozyme fitness, log enrichment relative to wild type (log ratio); higher = more active; in vitro selection for triplet polymerase activity
testReadout: polymerase ribozyme fitness (log ratio)
Give the figure only, with no unit attached.

variantDescription | polymerase ribozyme fitness (log ratio)
G44C C102A | -3.4
C8U C114G U126C | -1.85
A2C C4A A84U C115G | -5.82
U38G C82U | -0.857
U78C G117C | -3.6

Can you look up the measured polymerase ribozyme fitness (log ratio) of C56G C94G for me? -1.87

Can you look up the measured polymerase ribozyme fitness (log ratio) of C40G C72U C102U U116G C124U for me? -4.29

FYI, the data here is from the RNAGym collection of RNA variant scans (doi:10.1073/pnas.2313332121).
